Entries and their NanoBRET Abs IC50
TARGET OR SYSTEM: T1, B-cat-Halo (UniProt P35222 1-781)
T1 sequence (looked up): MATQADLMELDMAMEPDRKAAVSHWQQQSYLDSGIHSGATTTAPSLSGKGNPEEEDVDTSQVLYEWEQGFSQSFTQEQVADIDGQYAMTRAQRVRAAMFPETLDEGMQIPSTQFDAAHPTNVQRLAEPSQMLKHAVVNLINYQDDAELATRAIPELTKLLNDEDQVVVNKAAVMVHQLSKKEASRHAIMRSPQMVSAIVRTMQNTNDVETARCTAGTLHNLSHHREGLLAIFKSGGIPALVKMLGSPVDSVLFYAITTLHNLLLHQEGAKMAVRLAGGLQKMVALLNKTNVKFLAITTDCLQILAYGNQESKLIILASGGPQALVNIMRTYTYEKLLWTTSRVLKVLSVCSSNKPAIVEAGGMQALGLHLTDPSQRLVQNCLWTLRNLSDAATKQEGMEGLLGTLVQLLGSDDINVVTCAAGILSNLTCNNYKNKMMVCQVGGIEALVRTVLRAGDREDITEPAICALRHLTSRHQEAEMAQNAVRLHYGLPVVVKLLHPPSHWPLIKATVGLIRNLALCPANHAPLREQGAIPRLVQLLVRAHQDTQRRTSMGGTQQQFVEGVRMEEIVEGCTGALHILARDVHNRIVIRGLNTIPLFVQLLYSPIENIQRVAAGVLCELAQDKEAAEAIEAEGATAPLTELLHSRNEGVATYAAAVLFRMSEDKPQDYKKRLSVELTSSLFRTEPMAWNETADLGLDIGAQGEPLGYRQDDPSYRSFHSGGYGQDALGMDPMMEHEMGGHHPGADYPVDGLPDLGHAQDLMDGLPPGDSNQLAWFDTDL
ASSAY INFO: cell-based or functional assay
Starred links: 1 amine or outer side, 2 acyl side, 3 side chain; linkers in the order of their positions; H or OH if unused. Positions of bridges follow the written chain, without caps; N, C: chain ends. Non-standard residues stand in square brackets, D forms with d. Primed or numbered codes have the meaning given here. PyrS2″ = (S)-3-amino-1-((pent-4-en-1-yloxy)carbonyl)pyrrolidine-3-carboxylic acid (stapling residue), C=CCCCOC(=O)N1CC[C@@](N[*:1])(C(=O)[*:2])C1; PyrS2 = (S)-3-amino-1-((pent-4-en-1-yloxy)carbonyl)pyrrolidine-3-carboxylic acid, C=CCCCOC(=O)N1CC[C@@](N[*:1])(C(=O)[*:2])C1; B5(3) = 2,2-bis(4-pentenyl)glycine (stitching residue), C=CCCCC(CCCC=C)(N[*:1])C(=O)[*:2]; Phe(4-COOH) = N[C@@H](Cc1ccc(C(=O)O)cc1)C(=O)O; Bta = N[C@@H](Cc1csc2ccccc12)C(=O)O; αAllylPro = C=CC[C@@]1(C(=O)O)CCCN1; tBuAla = CC(C)(C)C[C@H](N)C(=O)O; 3Thi = N[C@@H](Cc1ccsc1)C(=O)O
State just the number; it will be interpreted in µM.

For orientation, consider the following solved cases.
{"BINDER": "Ac-[αAllylPro]D[tBuAla][B5(3)]D[Phe(4-COOH)]AAFF[PyrS2][3Thi][Bta]Q-NH2 (staple 1-4, 4-11) [I-850]", "NanoBRET Abs IC50 / µM": 16.4}
{"BINDER": "Ac-[αAllylPro]D[tBuAla][B5(3)]DNAAFN[PyrS2″][3Thi][Bta]H-NH2 (staple 1-4, 4-11) [I-837]", "NanoBRET Abs IC50 / µM": 23.8}
{"BINDER": "Ac-[αAllylPro]D[tBuAla][B5(3)]DQAAFN[PyrS2″][3Thi][Bta]Q-NH2 (staple 1-4, 4-11) [I-838]", "NanoBRET Abs IC50 / µM": 17.4}

Field: next binder
Qu. Annotate the binder Ac-[αAllylPro]D[tBuAla][B5(3)]DQAAFN[PyrS2″][3Thi][Bta]H-NH2 (staple 1-4, 4-11) [I-839] with its measured NanoBRET Abs IC50.
Ans. 41.9
